Numbers sourced from ChEMBL document CHEMBL1155351.

- Assay Summary: Binding affinity to alpha1 adrenergic receptor
Measurement Kind: Ki (µM)
Write the number in µM without appending the unit.

Retrieve Ki measured for N#Cc1cccc2c1C=Cc1ncc(-c3ccccc3)cc1C2O (single isomer, unassigned; (-)) and print it.
5
